test system: Plasmodium falciparum; assay: In vitro antimalarial activity against chloroquine-sensitive Plasmodium falciparum FCR3; assay type: functional, organism-based
pEC50: −log10 of the molar value.
Reported pEC50 values are given for each entry in this list.

| Line Notation | Censoring Qualifier | pEC50 |
| --- | --- | --- |
| CCn1c(=O)/c(=C2\Sc3ccccc3N2C)s/c1=C\c1cccc[n+]1C.Cc1ccc(S(=O)(=O)[O-])cc1 | = | 7.64 |
| CCn1c(=O)/c(=C2\Sc3ccccc3N2C)s/c1=C\c1cccc[n+]1C.[Cl-] | = | 7.59 |
| CCn1c(=O)/c(=C2\Sc3ccccc3N2C)s/c1=C\c1cccc[n+]1C.[OH-] | = | 7.66 |
